Consider the following compounds; for each one, report its % Inhibition of AII vasopressor response.
System: ANGIOTENSIN II VASOPRESSOR RESPONSE
Test: AII Challenge: blockade of angiotensin II vasopressor response in conscious SHR
Format: in vivo, rat (Conscious Male Okamoto-Aoki SHR)
Details: SHR n=2; 3 mg/kg i.v.; AII 0.1 mcg/kg IV; 90 min post dose
Numbers only; they are read as %.

Entry CCCCc1nc2ccc(C(C)(O)C3CCCN(C)C3=O)cc2c(=O)n1Cc1ccc(-c2ccccc2-c2nn[nH]n2)cc1 (single isomer, unassigned; isomer 2) [Example 53] — recorded % Inhibition of AII vasopressor response = 76

Entry CCCCc1nc2ccc(C(C)(O)C3CCN(C)C3=O)cc2c(=O)n1Cc1ccc(-c2ccccc2-c2nn[nH]n2)cc1 (single isomer, unassigned; isomer 1) [Example 47] — recorded % Inhibition of AII vasopressor response = 76

Entry CCCCc1nc2ccc(C(O)C3CCCN(C)C3=O)cc2c(=O)n1Cc1ccc(-c2ccccc2-c2nn[nH]n2)cc1 (single isomer, unassigned; isomer 1) [Example 37] — recorded % Inhibition of AII vasopressor response = 85

The reported measurements were obtained from patent US5288720A.
